test: Cell cytotoxicity assay (MTS), CC90 as reported in Table 1, cell line not stated; assay type: cell-based; details: human; MTS assay; 8 days incubation; cell line not given
measure: CC90 at 8 days

For orientation, consider the following solved cases.
CC(C)C[C@H]1CN(C(=O)C#Cc2cccnc2)[C@@H](CC(C)C)C(=O)N1 | > 10 µM
O=C1N[C@@H](c2ccccc2)CN(C(=O)c2noc(-c3ccc(F)cc3)n2)[C@H]1c1cccs1 | > 10 µM
CC[C@@H](C)[C@H]1C(=O)N[C@@H](c2ccccc2)CN1C(=O)[C@@H]1C[C@H]1c1ccccc1 | > 10 µM
CC(C)C[C@H]1C(=O)N[C@@H](c2ccccc2)CN1C(C)c1cc(-c2ccc(F)cc2)on1 (stereo partly shown) | > 10 µM
CC(C)C[C@H]1CN(C(=O)c2noc(-c3ccc(Cl)cc3)n2)[C@@H](CC(C)C)C(=O)N1 | > 10 µM

For every listed record, write down its CC90 at 8 days.
1. CC(C)C[C@H]1C(=O)N[C@@H](C2CCCC2)CN1C(=O)[C@@H]1C[C@H]1c1ccc(C(C)(C)C)cc1
2. CC(C)C[C@H]1C(=O)N[C@@H](C2CCC2)CN1C(=O)c1cc(-c2ccc(F)cc2)on1

Outgoing:
["> 10 µM", "> 10 µM"]
